All values here come from PubChem BioAssay AID1645866.

# tgt: Ubiquitin carboxyl-terminal hydrolase 28 (Homo sapiens) (UniProt Q96RU2)
# Sequence (Q96RU2 whole entry, looked up): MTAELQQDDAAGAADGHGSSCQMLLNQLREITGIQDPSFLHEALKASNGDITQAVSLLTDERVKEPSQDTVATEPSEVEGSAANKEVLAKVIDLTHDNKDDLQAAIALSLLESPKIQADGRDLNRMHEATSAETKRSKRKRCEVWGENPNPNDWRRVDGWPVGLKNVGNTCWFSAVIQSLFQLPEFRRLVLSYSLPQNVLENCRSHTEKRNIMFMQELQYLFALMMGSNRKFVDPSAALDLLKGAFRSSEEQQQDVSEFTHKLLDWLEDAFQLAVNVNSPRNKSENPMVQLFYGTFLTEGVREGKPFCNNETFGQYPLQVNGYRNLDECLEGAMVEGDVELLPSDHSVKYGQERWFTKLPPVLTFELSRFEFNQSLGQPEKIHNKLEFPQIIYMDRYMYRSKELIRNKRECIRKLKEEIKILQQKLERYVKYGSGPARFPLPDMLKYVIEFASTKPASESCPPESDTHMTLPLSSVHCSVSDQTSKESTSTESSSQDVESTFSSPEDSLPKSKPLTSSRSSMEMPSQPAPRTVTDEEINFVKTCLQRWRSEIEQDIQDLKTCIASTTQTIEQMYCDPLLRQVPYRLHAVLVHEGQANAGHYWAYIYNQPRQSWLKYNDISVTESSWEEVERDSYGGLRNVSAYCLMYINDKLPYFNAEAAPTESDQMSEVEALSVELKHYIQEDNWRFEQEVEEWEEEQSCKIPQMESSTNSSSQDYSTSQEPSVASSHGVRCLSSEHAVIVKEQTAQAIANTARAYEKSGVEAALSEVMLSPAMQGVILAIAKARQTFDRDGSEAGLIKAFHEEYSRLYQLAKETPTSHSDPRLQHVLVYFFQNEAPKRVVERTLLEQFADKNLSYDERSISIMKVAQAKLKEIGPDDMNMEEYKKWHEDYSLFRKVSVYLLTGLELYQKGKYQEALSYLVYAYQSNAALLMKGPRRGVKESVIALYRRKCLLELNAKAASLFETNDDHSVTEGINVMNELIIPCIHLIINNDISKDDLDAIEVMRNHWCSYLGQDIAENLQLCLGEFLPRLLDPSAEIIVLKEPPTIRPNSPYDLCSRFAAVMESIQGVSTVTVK
# measurementDescription: Concentration-response biochemical assay confirming initial hits as inhibitors of ubiquitin-specific protease 28 (AID 1645866)
# conditionNotes: purified USP28, ubiquitin-rhodamine fluorescence, 30 min
Active and inactive are the calls of the source.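 Rule for the calls: active = in confirmatory dose-response testing, peak deubiquitinase inhibition of 30% or more; inactive = the rest.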
Outcomes: active, inactive

INSERT INTO results (compound, label) VALUES
  ('O=C(Cn1c(-c2ccccc2)ncc(C(=O)NC2CC2)c1=O)Nc1ccccc1', 'active'),
  ('c1cnc(-c2n[nH]c(C3CCN(C4CCNC4)CC3)n2)cn1 (stereo unspecified)', 'inactive'),
  ('O=C(Nc1ccccc1Br)c1ccn(COc2ccccc2F)n1', 'active'),
  ('FC(F)(F)c1cccc(Nc2nnc(-c3cccnc3)s2)c1', 'active'),
  ('CN(CCc1ccccc1)c1nccc(N2CCN(C(=O)c3csc(-c4cccnc4)n3)CC2)n1', 'inactive'),
  ('COc1ccc(CCNc2c(-c3ccccc3O)nc3cnccn23)cc1OC', 'inactive'),
  ('COC(=O)c1ccc2c(=O)n(CCCCCC(=O)NCc3cccc(Cl)c3)c(=O)[nH]c2c1', 'active'),
  ('O=C(Cc1ccccc1F)N1CCC2(CC1)CC1(CO2)Nc2ccccc2-n2cccc21 (stereo unspecified)', 'inactive'),
  ('CC1=CN2C(=N)/C(=C/c3cn(Cc4ccc(Cl)cc4)c4ccccc34)C(=O)N=C2S1', 'inactive'),
  ('COC(=O)c1cc2c(ccn2C)n1CC(=O)NC1CC1', 'inactive'),
  ('CC1Cc2ccccc2N1C(=O)Cn1c(=O)cc(O)c2ccccc21 (stereo unspecified)', 'active'),
  ('COc1ccc(C(=O)NCCc2nnc3ccc(SCC(=O)NCc4ccc(F)cc4)nn23)cc1', 'active'),
  ('CCn1cnc2c(-c3ccccc3)cn(CC(=O)NCc3ccc4c(c3)OCO4)c2c1=O', 'active'),
  ('Cc1ccc2nc(CNC(=O)c3ccccc3-c3nc(-c4ccc(F)cc4)no3)[nH]c2c1', 'active'),
  ('O=C(COC(=O)c1n[nH]c2ccccc12)Nc1ccc(N2CCCCC2)cc1', 'active'),
  ('Cc1cc(C(=O)N2CCN(C3CCN(Cc4ccc(Cl)o4)CC3)C(=O)C2)c(C)o1', 'inactive'),
  ('CC1OC2CC(O)C1(O)C1=C2C(O)=C(C(N)=O)C(=N)C1=O (stereo unspecified)', 'active'),
  ('CSc1ncc(C(=O)NC(C)c2ccccc2)c(-c2ccccc2)n1 (stereo unspecified)', 'active'),
  ('COc1ccc(C2CC(=O)Nc3ccc4ccccc4c32)c(OC)c1OC (stereo unspecified)', 'active'),
  ('COc1cccc(-n2c(=O)[nH]c3c(C(N)=O)nc(-c4ccc(OCc5ccccc5)cc4)nc32)c1', 'inactive'),
  ('COc1ccc(-c2nc(SCC(=O)Nc3ccc(Cl)cc3F)n[nH]2)cc1', 'inactive');

====

# tgt: Ubiquitin carboxyl-terminal hydrolase 28 (Homo sapiens)
pIC50: −log10 of the molar value.
Use satisfied when the recorded pIC50 is no lower than 5; use not satisfied when it is lower.

INSERT INTO measurements (compound, label) VALUES
  ('Cc1ccc2[nH]c3c(=O)n(CC4CCCO4)cnc3c2c1 (stereo unspecified)', 'not satisfied'),
  ('Cc1ccc2nc(CCc3ccc(NS(=O)(=O)c4cccc(Cl)c4C)cc3)[nH]c2c1', 'not satisfied'),
  ('CCOc1ccccc1NC(=O)COc1cc(OC)ccc1C(=O)c1ccccc1', 'satisfied');

====

# tgt: Ubiquitin carboxyl-terminal hydrolase 28 (Homo sapiens)
# measurementDescription: Concentration-response biochemical assay confirming initial hits as inhibitors of ubiquitin-specific protease 28 (AID 1645866)
# conditionNotes: purified USP28, ubiquitin-rhodamine fluorescence, 30 min
Activity calls are given as the source filed them.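 Rule for the calls: active = in confirmatory dose-response testing, peak deubiquitinase inhibition of 30% or more; inactive = the rest.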
Outcomes: active, inactive

INSERT INTO measurements (compound, label) VALUES
  ('CCCCCCCc1cc(O)cc(OC(=O)c2c(CCCCCCC)cc(O)cc2O[C@H]2O[C@H](C(O)CO)[C@@H](O)[C@@H]2O)c1 (some centres not stated)', 'active'),
  ('CCc1nnc(NC(=O)c2nnn(-c3ccccc3Cl)c2C)s1', 'active'),
  ('CCn1cnc2ccc(C(=O)NC3CC3)cc2c1=O', 'active'),
  ('O=C(CCCCn1c(=O)[nH]c2ccccc2c1=O)Nc1cccc(Cl)c1', 'active'),
  ('CCn1cnc2c1c(=O)n(CC(=O)NCc1ccccc1Cl)c(=O)n2Cc1ccccc1', 'inactive'),
  ('COc1ccc(C2CC(=O)Nc3n[nH]c(-c4ccccc4)c32)cc1OC (configuration not stated)', 'active'),
  ('CC(=O)N1CCc2cc(S(=O)(=O)NC(Cc3ccccc3)C(=O)Nc3cccc(Cl)c3C)ccc21 (configuration not stated)', 'active'),
  ('CC(=O)c1cccc(NC(=O)c2ccc3[nH]c4c(c3c2)CC(C)CC4)c1 (configuration not stated)', 'inactive'),
  ('Cc1nc(C(=O)NC2(O)C(=O)c3ccccc3C2=O)cs1', 'active'),
  ('Cc1ccc(C(=O)Nc2cc3c4c(c2)CC(=O)N4CCC3)cc1', 'active'),
  ('O=C(c1cc(-c2ccc(Cl)cc2)n[nH]1)N1CCN(C(=O)c2ccco2)CC1', 'active'),
  ('Cc1nc(-c2noc3ccc(C(=O)Nc4cccnc4)cc23)cs1', 'active'),
  ('NS(=O)(=O)c1ccc(NS(=O)(=O)c2ccc(NC(=O)Nc3ccc(Cl)cc3)cc2)cc1', 'active'),
  ('COc1ccc(NC(=O)C2CC(=O)Nc3cc(-c4ccccc4)nn32)cc1 (configuration not stated)', 'active'),
  ('O=[N+]([O-])c1ccc(NCC2COc3ccccc3O2)c(Cl)c1 (configuration not stated)', 'active'),
  ('COc1cc(-c2ccno2)ccc1S(=O)(=O)Nc1ccccc1Cl', 'active'),
  ('O=C(NCC(c1cccnc1)N1CCc2ccccc2C1)C(=O)Nc1ccc2c(c1)OCO2 (configuration not stated)', 'active'),
  ('Cn1c(-c2nnc(SCC(=O)Nc3ccccc3F)o2)cc2ccccc21', 'active'),
  ('CC(C)N1CC2CN(C(=O)c3ccccc3)CCN2Cc2ccccc21 (configuration not stated)', 'inactive'),
  ('COc1ccccc1-c1ccc(CN2[C@@H](c3ccccc3)C[C@@H]3NC(=O)CCC[C@H]32)cc1', 'inactive'),
  ('COc1cc(/C=C/C(=O)OCC(=O)Nc2ccc([N+](=O)[O-])cc2OC)ccc1O', 'active'),
  ('Nc1nc(OCc2ccccc2)c2[nH]c(/C=C/c3cccs3)nc2n1', 'active'),
  ('O=C(Nc1cccc(Cl)c1)N1CCN(c2cc(C(F)(F)F)ccn2)CC1', 'active'),
  ('CCCCc1nc2sc3c(SCC(=O)NCc4ccccc4)ncnc3c2c2c1CCC2', 'active'),
  ('O=C(Nc1ccc(F)cc1F)c1csc(-c2ccccc2)n1', 'active'),
  ('Cc1ccc(CNC(=O)c2cnc3ccccc3n2)cc1', 'inactive'),
  ('O=S1(=O)CCN(Cc2c(F)cccc2F)c2c(F)nc(N3CCOCC3)c(F)c21', 'inactive'),
  ('Cc1cc(O)cc2cc3c(c(O)c12)C(=O)CCC3O (configuration not stated)', 'inactive'),
  ('COc1cc2c(c3oc4cccc(O)c4c(=O)c13)C1C=COC1O2 (configuration not stated)', 'active'),
  ('CSc1cccc(NC(=O)CCc2ccc3nc(NC(C)=O)sc3c2)c1', 'inactive'),
  ('CC(=O)Nc1ccc(NC(=O)c2cc(-c3cc(C)cc(C)c3O)n[nH]2)cc1', 'active'),
  ('COc1cccc(-c2nc(C(N)=O)c3[nH]c(=O)n(-c4cccc(Cl)c4)c3n2)c1OC', 'inactive'),
  ('Nc1c(-c2ccc(Cl)cc2)cnc2cc(-c3ccc(Cl)c(Cl)c3)nn12', 'active'),
  ('Cc1ccc(NC(=O)/C=C/c2cccc(C(F)(F)F)c2)c(O)c1', 'active'),
  ('CC(C)N(C(=O)Cn1c(=O)[nH]c2ccccc21)c1ccccc1', 'inactive'),
  ('CCCCCCCc1cc(O)cc(O)c1', 'active'),
  ('Cc1ccc(Cc2nc(-c3ccc(=O)[nH]c3)no2)cc1', 'active'),
  ('O=c1c2ccccc2ncn1C1CCN(S(=O)(=O)c2ccccc2F)CC1', 'active'),
  ('CC(=O)c1ccc(NC(=O)C[n+]2cc(-c3ccc(Cl)cc3)n3c2CCC3)cc1', 'active'),
  ('Cc1c(OCC(=O)Nc2nc3ccccc3[nH]2)ccc2c3c(c(=O)oc12)CCC3', 'active'),
  ('COc1ccc2[nH]c3c(c2c1)CCN1C(=O)N(c2ccccc2C(=O)NCc2ccccc2)C(=O)[C@]31C', 'active'),
  ('O=C(Nc1cccc2ccccc12)C1CCCN(S(=O)(=O)Cc2ccccc2)C1 (configuration not stated)', 'active');

====

# tgt: Ubiquitin carboxyl-terminal hydrolase 28 (Homo sapiens)
# measurementDescription: Concentration-response biochemical assay confirming initial hits as inhibitors of ubiquitin-specific protease 28 (AID 1645866)
# conditionNotes: purified USP28, ubiquitin-rhodamine fluorescence, 30 min
Active and inactive are the calls of the source.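 Rule for the calls: active = in confirmatory dose-response testing, peak deubiquitinase inhibition of 30% or more; inactive = the rest.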
Outcomes: Y = active, N = inactive

INSERT INTO results (compound, label) VALUES
  ('Cc1ccc2c(c1C)NC(=O)[C@]21[C@@H]2C(=O)N(c3cc(Cl)ccc3Cl)C(=O)[C@@H]2[C@@H]2CCCN21', 'N'),
  ('O=C(c1ccc2occc2c1)N1CCC(S(=O)(=O)c2ccc(-c3ccco3)cc2)CC1', 'N'),
  ('O=C1N(Cc2ccc(F)cc2)CCN1c1ccc(C(F)(F)F)cn1', 'Y'),
  ('N#Cc1cccc(NC(=O)Cn2cccc(-c3nc(-c4ccccc4)no3)c2=O)c1', 'N'),
  ('CC1CCN(S(=O)(=O)c2ccc(C(=O)Nc3ccc(S(N)(=O)=O)cc3)cc2)CC1', 'Y'),
  ('Cc1nc2cc(NC(=O)C3CN(C(=O)c4cnccn4)C3)ccc2s1', 'Y'),
  ('COc1ccc(-c2cc3nc(C)cc(Nc4ccc(F)cc4)n3n2)cc1OC', 'N'),
  ('COc1ccc(C(=O)CSc2ccc3nnc(CCNC(=O)c4ccc(OC)cc4)n3n2)cc1', 'N'),
  ('O=C(NCCc1ccco1)c1ccc(N2CCOc3ccccc32)s1', 'Y'),
  ('CCN(CC)C(=O)c1sc(NC(=O)/C=C/c2c(F)cccc2Cl)c(C#N)c1C', 'Y'),
  ('Cn1c2ccccc2c2ncn(Cc3ccc(F)cc3)c(=O)c21', 'Y'),
  ('Cc1cc(-c2nnc(SCC(=O)Nc3ccc(Br)c(C)c3)n2N)n[nH]1', 'Y'),
  ('O=C(Nc1ccc2c(c1)OCCO2)C1CCN(C(=O)c2cc(-c3cccnc3)n[nH]2)CC1', 'Y'),
  ('CCn1c(SCC(=O)c2c(N)n(CC(C)C)c(=O)n(C)c2=O)nnc1-c1ccccc1', 'Y'),
  ('Cc1ccc(NC(=O)c2ccc3c(c2)N(S(C)(=O)=O)CC3)cc1', 'Y'),
  ('COc1ccc(NC(=O)CSc2nnc(Cc3cccc4ccccc34)n2C)cc1', 'Y'),
  ('Cc1c(-c2ccccc2)oc2c(C(=O)OCC(=O)Nc3ccccc3F)cccc2c1=O', 'N'),
  ('Cc1nc(N2CCCC2)ncc1-c1cc(=O)[nH]c(N2CCc3ccccc3C2)n1', 'Y'),
  ('COc1ccc(-c2nnc(SCc3ccccc3C#N)o2)c(OC)c1', 'N'),
  ('CCN1C(SCc2ccccc2F)=NS(=O)(=O)c2ccccc21', 'Y'),
  ('Cc1sc2nc(CN3CCCC3)nc(NCCc3ccc(Cl)cc3)c2c1C', 'N'),
  ('CC(C)CC1NC(=O)C2CCCN2C1=O (configuration not stated)', 'Y'),
  ('Cn1c2ccccc2c(=O)c2c(=O)n(Cc3ccccc3)c(-c3ccco3)nc21', 'Y'),
  ('COc1ccc(C(=O)CSc2nnc(-c3cccnc3)n2-c2ccccc2)cc1', 'N'),
  ('Cc1c(C)c2ccc(OCC(=O)NCc3ccncc3)c(C)c2oc1=O', 'Y'),
  ('Cc1cc(C)c2c(-n3cccc3)c(C(=O)NCCc3ccc(S(N)(=O)=O)cc3)sc2n1', 'Y'),
  ('COc1ccc(NC(=O)CN2C(=O)c3ccccc3Sc3ccc(C(=O)N4CCCC4)cc32)c(OC)c1', 'Y'),
  ('CCCCNC(=O)c1cc2cccnc2n(Cc2ccccc2)c1=O', 'N'),
  ('CCOC(=O)Nc1ccc(N2CCn3c(nc4ccccc43)C2)cc1OC', 'N'),
  ('Cc1cc(-c2cnc(N(C)C)nc2-c2ccc(CNC(=O)Cc3ccc(F)cc3)cc2)on1', 'Y'),
  ('O=c1ccc(-c2noc(-c3ccc4cc[nH]c4c3)n2)c[nH]1', 'N'),
  ('Cc1cc(C)c2cc(C(=O)NC3CCN(Cc4ccccc4)CC3)[nH]c2c1', 'Y'),
  ('CSc1ccccc1C(=O)Nc1nc(-c2ccncc2)cs1', 'Y'),
  ('CSc1cccc(NC(=O)COc2cccc3ccccc23)c1', 'Y'),
  ('Cc1ccc(C(=O)Nc2cc3c4c(c2)CC(=O)N4CCC3)cc1C', 'Y'),
  ('COc1ccccc1C(=O)N1CCC(S(=O)(=O)c2ccc(-c3ccco3)cc2)CC1', 'Y'),
  ('O=C(NCc1ccc2c(c1)OCO2)c1nn(C23CC4CC(CC(C4)C2)C3)cc1[N+](=O)[O-]', 'N'),
  ('O=C(Nc1cccc(S(=O)(=O)N2CCCC2)c1)c1ccc2c(=O)n3c(nc2c1)CCCCC3', 'Y'),
  ('O=[N+]([O-])c1cccc(CSc2nnc(/C=C/c3ccccc3)o2)c1', 'N'),
  ('CC(=O)c1ccccc1NC(=O)COc1ccc(-c2ccc(C#N)cc2)cc1', 'Y'),
  ('Oc1ccc(-c2nc3ccc(Cl)cn3c2NC2CCCCC2)cc1', 'Y'),
  ('CCOc1ccc2c(c1)c(=O)c(C(=O)c1ccccc1)cn2CC(=O)Nc1ccc2c(c1)OCCO2', 'Y');
